Tested on: A375 multi-cell spheroids with HUVEC/MSC, viability
Protocol Notes: Anticancer human tumor A375 cell line growth inhibition [GQUAD];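 further: spheroids exposed to compounds for seven days before readout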
Test Conditions: second compound 10 µM; first compound 0.00316 µM; hits give low values
Endpoint Label: viability, T/C (%)

1) Cc1[nH]c2ccccc2c1CCNCc1ccc(/C=C/C(=O)NO)cc1 + Cc1cnc(CNC(=O)c2c(=O)c3ccc(N4CCCN(C)CC4)nc3n3c2sc2ccccc23)cn1 : 25.6
2) CCc1c2c(nc3ccc(O)cc13)-c1cc3c(c(=O)n1C2)COC(=O)[C@]3(O)CC + CN(C)c1ccc(Nc2c3ccc(NC(=O)CCN4CCCC4)cc3nc3cc(NC(=O)CCN4CCCC4)ccc23)cc1 : 18.2
3) CC[C@@]1(O)C(=O)OCc2c1cc1n(c2=O)Cc2cc3c(CN(C)C)c(O)ccc3nc2-1 + Cc1cnc(CNC(=O)c2c(=O)c3ccc(N4CCCN(C)CC4)nc3n3c2sc2ccccc23)cn1 : 30.3
4) Cn1ncnc1[C@H]1c2n[nH]c(=O)c3cc(F)cc(c23)N[C@@H]1c1ccc(F)cc1 + Cc1cnc(CNC(=O)c2c(=O)c3ccc(N4CCCN(C)CC4)nc3n3c2sc2ccccc23)cn1 : 32.7
5) CC[C@@]1(O)C(=O)OCc2c1cc1n(c2=O)Cc2cc3c(CN(C)C)c(O)ccc3nc2-1 + Cc1[nH]c2ccc(F)cc2c1-c1nc2c3cccnc3c3ncccc3c2[nH]1 : 101
6) Cc1[nH]c2ccccc2c1CCNCc1ccc(/C=C/C(=O)NO)cc1 + Cc1[nH]c2ccc(F)cc2c1-c1nc2c3cccnc3c3ncccc3c2[nH]1 : 93
7) CCc1c2c(nc3ccc(O)cc13)-c1cc3c(c(=O)n1C2)COC(=O)[C@]3(O)CC + Cc1[nH]c2ccc(F)cc2c1-c1nc2c3cccnc3c3ncccc3c2[nH]1 : 17.6
8) Cn1ncnc1[C@H]1c2n[nH]c(=O)c3cc(F)cc(c23)N[C@@H]1c1ccc(F)cc1 + CN(C)c1ccc(Nc2c3ccc(NC(=O)CCN4CCCC4)cc3nc3cc(NC(=O)CCN4CCCC4)ccc23)cc1 : 97.5
9) Cc1[nH]c2ccccc2c1CCNCc1ccc(/C=C/C(=O)NO)cc1 + CN(C)c1ccc(Nc2c3ccc(NC(=O)CCN4CCCC4)cc3nc3cc(NC(=O)CCN4CCCC4)ccc23)cc1 : 98.7
10) CC[C@@]1(O)C(=O)OCc2c1cc1n(c2=O)Cc2cc3c(CN(C)C)c(O)ccc3nc2-1 + CN(C)c1ccc(Nc2c3ccc(NC(=O)CCN4CCCC4)cc3nc3cc(NC(=O)CCN4CCCC4)ccc23)cc1 : 103
11) CCc1c2c(nc3ccc(O)cc13)-c1cc3c(c(=O)n1C2)COC(=O)[C@]3(O)CC + Cc1cnc(CNC(=O)c2c(=O)c3ccc(N4CCCN(C)CC4)nc3n3c2sc2ccccc23)cn1 : 16
12) Cn1ncnc1[C@H]1c2n[nH]c(=O)c3cc(F)cc(c23)N[C@@H]1c1ccc(F)cc1 + Cc1[nH]c2ccc(F)cc2c1-c1nc2c3cccnc3c3ncccc3c2[nH]1 : 95.7

Every entry's value here was drawn from PubChem BioAssay AID2060485.
